B1: PLK2 (parent)
chain: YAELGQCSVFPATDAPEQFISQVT

# Variants of: B1
# PROTOCOL: protein stability index of a GFP-peptide fusion (GPS, HEK-293T) (PSI 1-6); higher = more stable;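 note: lentivirally expressed fusions sorted by FACS into six bins by GFP to DsRed ratio, PSI derived from sequencing read proportions per bin multiplied by bin number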
# RUN CONDITIONS: c terminus: a fixed tail appended
Entries and their protein stability index
VALUE TYPE: protein stability index

- Q22E: 3.2
- T24R: 2.14
- V9R: 2.17
- A15C: 2
- C7F: 1.78
- D14A: 1.46
- T13R: 2.22
- P11Q: 1.91
- V23Y: 1.98
- A12G: 2.39
- I20N: 2.65
- S8G: 1.93
- A15I: 1.96
- T13W: 1.89
- G5R: 2.02
- P11D: 1.64
- S8E: 3.17
- F19T: 2.7
- G5C: 2.24
- S8F: 2.53
- I20G: 2.69
- P11R: 2.21
- E3P: 2.27
- C7A: 3.2
- L4D: 3.96
- F10E: 3.68
- Q22F: 1.73
